Target: Serine/threonine-protein kinase TBK1 (Homo sapiens);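 also: values are the mean TBK1 inhibition, taken from the GSK PKIS screening data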
Settings: at 0.1 µM
// values below are reported inhibition
measurement-kind: inhibition (%)

>>> endpoint_value("Nc1nc(-c2ccc3c(c2)C(=Cc2cc(Br)c(O)c(Br)c2)C(=O)N3)cs1")
0.67
>>> endpoint_value("COc1ccc(-c2nn3ncccc3c2-c2ccnc(Nc3ccc(Cl)c(C(F)(F)F)c3)n2)cc1")
0.22
>>> endpoint_value("CCn1c(-c2nonc2N)nc2cnc(Oc3cccc(NC(=O)c4ccc(OCCN5CCOCC5)cc4)c3)cc21")
0.71
>>> endpoint_value("CNC(=O)c1cncc(/C=C/c2c(Cl)cccc2Cl)c1")
2.82
>>> endpoint_value("Cn1cc(C=C2C(=O)Nc3cccnc32)c2ccccc21")
2.42
>>> endpoint_value("COc1ccc(-c2ccncc2)cc1C(N)=O")
2.55
>>> endpoint_value("COc1cc(C)c(NC(=O)CN(C)C)cc1Nc1nc(Nc2cccc(F)c2C(N)=O)c2cc[nH]c2n1")
1.95
>>> endpoint_value("NCc1ccc(-c2nc(-c3ccc(Cl)c(O)c3)c(-c3ccncc3)[nH]2)cc1")
-1.21
>>> endpoint_value("CC1=C(C(=O)Nc2ccc3[nH]ncc3c2)C(c2ccc3ccccc3c2)CC(=O)N1 (stereo not drawn)")
-1.92
>>> endpoint_value("CCn1c(-c2nonc2N)nc2cncc(C(=O)N3CCNCC3)c21")
6.79
>>> endpoint_value("CCn1c(-c2nonc2N)nc2ccncc21")
2.23
>>> endpoint_value("COc1ccc2cc(-c3c(-c4ccncc4)nc(-c4ccc([S+](C)[O-])cc4)n3C)ccc2c1 (stereo not drawn)")
-2.09
>>> endpoint_value("Cc1ccc(C(=O)NC2CCCCC2)cc1-c1ccc(C(=O)NCC2CC2)cc1")
1.75
>>> endpoint_value("CCn1c(-c2nonc2N)nc2c(C#CC(C)(C)O)nc(CN3CCCC3)cc21")
1.77
>>> endpoint_value("CS(=O)(=O)CCNCc1nc(-c2ccc3ncnc(Nc4ccc(F)c(Cl)c4)c3c2)cs1")
1.85
>>> endpoint_value("Cc1nnc(-c2ccc(C)c(-c3ccc(C(=O)Nc4cccc(C#N)c4)cc3)c2)o1")
5.08
>>> endpoint_value("COc1cccc(-n2ncc3c(N/N=C/c4cccc(F)c4)ncnc32)c1")
1.92
>>> endpoint_value("CCc1cccc(NC(=O)Nc2ccc(Oc3ccc4nc(NC(=O)OC)[nH]c4c3)cc2)c1")
0.31

###

Molecular target: Mitogen-activated protein kinase 9 (Homo sapiens) (UniProt P45984);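 also: reported figure is the mean inhibition of JNK2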
Sequence (P45984 whole entry, looked up): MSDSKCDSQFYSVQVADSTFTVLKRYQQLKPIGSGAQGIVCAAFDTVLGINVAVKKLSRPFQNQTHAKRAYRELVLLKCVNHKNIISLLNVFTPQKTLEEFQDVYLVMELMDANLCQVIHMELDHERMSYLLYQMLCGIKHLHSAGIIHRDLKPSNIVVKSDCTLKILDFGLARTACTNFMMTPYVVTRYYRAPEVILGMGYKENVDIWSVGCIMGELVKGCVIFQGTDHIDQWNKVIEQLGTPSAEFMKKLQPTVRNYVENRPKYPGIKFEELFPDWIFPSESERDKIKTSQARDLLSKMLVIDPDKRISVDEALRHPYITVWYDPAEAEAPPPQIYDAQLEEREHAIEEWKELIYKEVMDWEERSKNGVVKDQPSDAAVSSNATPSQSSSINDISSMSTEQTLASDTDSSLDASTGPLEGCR
Conditions: at 1 µM
measurement-kind: inhibition (%)

>>> endpoint_value("CCn1c(-c2nonc2N)nc2c(N3CCCC3)nccc21")
-4.92
>>> endpoint_value("O=C1NC(=O)C(c2cccc(Cl)c2)=C1Nc1ccc(O)c(Cl)c1")
1.38
>>> endpoint_value("O=C1NC(=O)C(N2CCc3ccccc32)=C1c1ccc(Cl)cc1")
5.32
>>> endpoint_value("[O-][S+]1CCN(Cc2ccc(-c3ccc4ncnc(Nc5ccc(OCc6ccccc6)c(F)c5)c4c3)o2)CC1")
4.55
>>> endpoint_value("COc1ccc(-c2coc3ncnc(N)c23)cc1")
5.45
>>> endpoint_value("Cc1nnc(-c2ccc(C)c(-c3ccc(C(=O)Nc4cccc(C#N)c4)cc3)c2)o1")
2.96
>>> endpoint_value("NCc1ccc(-c2nc(-c3ccc(Cl)c(O)c3)c(-c3ccncc3)[nH]2)cc1")
15.8
>>> endpoint_value("Cn1cc(C=C2C(=O)Nc3cccnc32)c2ccccc21")
6.24
>>> endpoint_value("CS(=O)(=O)CCNCc1ccc(-c2ccc3ncnc(Nc4ccc(OCc5ccccc5)c(Cl)c4)c3c2)o1")
1.16
>>> endpoint_value("COc1cc(C=NNc2ncnc3c2cnn3-c2ccccc2)ccc1O")
6.67
>>> endpoint_value("Cc1cc(O)cc(C)c1/C=C/c1cncc(-c2nn[nH]n2)c1")
9.2
>>> endpoint_value("CCn1c(-c2nonc2N)nc2c(C#CC(C)(C)O)nc(CN3CCCC3)cc21")
-2.07
>>> endpoint_value("COC(=O)Nc1nc2cc(Oc3cccc(NC(=O)Nc4cc(C(F)(F)F)ccc4F)c3)ccc2[nH]1")
1.58
>>> endpoint_value("COc1cccc(-n2ncc3c(N/N=C/c4cccc(F)c4)ncnc32)c1")
4.69
>>> endpoint_value("CS(=O)(=O)CCNCc1ccc(-c2ccc3ncnc(Nc4ccc(OCc5cccc(F)c5)c(C(F)(F)F)c4)c3c2)o1")
4.78
>>> endpoint_value("CCn1c(-c2nonc2N)nc2c(C#CC(C)(C)O)nc(OC[C@@H](N)c3ccccc3)cc21")
-0.83

###

Target: Protein kinase C beta type (Homo sapiens) (UniProt P05771);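 also: GSK PKIS screen, average inhibition of the PKC-beta2 splice variant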
Sequence (P05771 2-671 limits assumed): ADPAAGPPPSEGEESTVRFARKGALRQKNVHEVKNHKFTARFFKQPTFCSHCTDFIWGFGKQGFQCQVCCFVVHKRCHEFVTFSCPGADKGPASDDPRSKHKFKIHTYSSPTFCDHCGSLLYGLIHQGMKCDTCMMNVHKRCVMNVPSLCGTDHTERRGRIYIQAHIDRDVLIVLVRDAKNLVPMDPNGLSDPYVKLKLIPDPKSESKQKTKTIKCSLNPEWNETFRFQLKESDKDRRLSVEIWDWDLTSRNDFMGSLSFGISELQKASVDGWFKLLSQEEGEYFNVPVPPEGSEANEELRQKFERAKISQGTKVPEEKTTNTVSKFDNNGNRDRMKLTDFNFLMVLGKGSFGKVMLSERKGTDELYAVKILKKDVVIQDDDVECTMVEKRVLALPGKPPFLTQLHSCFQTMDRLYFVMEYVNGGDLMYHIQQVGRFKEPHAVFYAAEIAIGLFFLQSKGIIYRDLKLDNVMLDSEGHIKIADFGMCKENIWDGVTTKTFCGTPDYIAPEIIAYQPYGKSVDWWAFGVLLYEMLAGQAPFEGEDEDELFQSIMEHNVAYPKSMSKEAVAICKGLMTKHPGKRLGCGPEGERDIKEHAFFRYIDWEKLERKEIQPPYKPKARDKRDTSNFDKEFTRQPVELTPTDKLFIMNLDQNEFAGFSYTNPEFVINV
Conditions: at 1 µM
Description: GSK_PKIS: PKC-beta2 (splice variant) mean inhibition at 1 uM [Nanosyn]
Property: inhibition; scope: individual compounds
measurement-kind: inhibition (%)

>>> endpoint_value("CCn1c(-c2nonc2N)nc2c(C#CC(C)(C)O)nc(CN3CCCC3)cc21")
6.65
>>> endpoint_value("CC1=C(C(=O)Nc2ccc3[nH]ncc3c2)C(c2ccc(F)cc2)NC(=O)N1 (stereo not drawn)")
1.76
>>> endpoint_value("COc1ccc(-c2nn3ncccc3c2-c2ccnc(Nc3ccc(Cl)c(C(F)(F)F)c3)n2)cc1")
0.81

###

Target: Serine/threonine-protein kinase MRCK alpha (Homo sapiens) (UniProt Q5VT25);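 also: each value is an averaged percent inhibition of MRCK alpha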
Sequence (Q5VT25 whole entry): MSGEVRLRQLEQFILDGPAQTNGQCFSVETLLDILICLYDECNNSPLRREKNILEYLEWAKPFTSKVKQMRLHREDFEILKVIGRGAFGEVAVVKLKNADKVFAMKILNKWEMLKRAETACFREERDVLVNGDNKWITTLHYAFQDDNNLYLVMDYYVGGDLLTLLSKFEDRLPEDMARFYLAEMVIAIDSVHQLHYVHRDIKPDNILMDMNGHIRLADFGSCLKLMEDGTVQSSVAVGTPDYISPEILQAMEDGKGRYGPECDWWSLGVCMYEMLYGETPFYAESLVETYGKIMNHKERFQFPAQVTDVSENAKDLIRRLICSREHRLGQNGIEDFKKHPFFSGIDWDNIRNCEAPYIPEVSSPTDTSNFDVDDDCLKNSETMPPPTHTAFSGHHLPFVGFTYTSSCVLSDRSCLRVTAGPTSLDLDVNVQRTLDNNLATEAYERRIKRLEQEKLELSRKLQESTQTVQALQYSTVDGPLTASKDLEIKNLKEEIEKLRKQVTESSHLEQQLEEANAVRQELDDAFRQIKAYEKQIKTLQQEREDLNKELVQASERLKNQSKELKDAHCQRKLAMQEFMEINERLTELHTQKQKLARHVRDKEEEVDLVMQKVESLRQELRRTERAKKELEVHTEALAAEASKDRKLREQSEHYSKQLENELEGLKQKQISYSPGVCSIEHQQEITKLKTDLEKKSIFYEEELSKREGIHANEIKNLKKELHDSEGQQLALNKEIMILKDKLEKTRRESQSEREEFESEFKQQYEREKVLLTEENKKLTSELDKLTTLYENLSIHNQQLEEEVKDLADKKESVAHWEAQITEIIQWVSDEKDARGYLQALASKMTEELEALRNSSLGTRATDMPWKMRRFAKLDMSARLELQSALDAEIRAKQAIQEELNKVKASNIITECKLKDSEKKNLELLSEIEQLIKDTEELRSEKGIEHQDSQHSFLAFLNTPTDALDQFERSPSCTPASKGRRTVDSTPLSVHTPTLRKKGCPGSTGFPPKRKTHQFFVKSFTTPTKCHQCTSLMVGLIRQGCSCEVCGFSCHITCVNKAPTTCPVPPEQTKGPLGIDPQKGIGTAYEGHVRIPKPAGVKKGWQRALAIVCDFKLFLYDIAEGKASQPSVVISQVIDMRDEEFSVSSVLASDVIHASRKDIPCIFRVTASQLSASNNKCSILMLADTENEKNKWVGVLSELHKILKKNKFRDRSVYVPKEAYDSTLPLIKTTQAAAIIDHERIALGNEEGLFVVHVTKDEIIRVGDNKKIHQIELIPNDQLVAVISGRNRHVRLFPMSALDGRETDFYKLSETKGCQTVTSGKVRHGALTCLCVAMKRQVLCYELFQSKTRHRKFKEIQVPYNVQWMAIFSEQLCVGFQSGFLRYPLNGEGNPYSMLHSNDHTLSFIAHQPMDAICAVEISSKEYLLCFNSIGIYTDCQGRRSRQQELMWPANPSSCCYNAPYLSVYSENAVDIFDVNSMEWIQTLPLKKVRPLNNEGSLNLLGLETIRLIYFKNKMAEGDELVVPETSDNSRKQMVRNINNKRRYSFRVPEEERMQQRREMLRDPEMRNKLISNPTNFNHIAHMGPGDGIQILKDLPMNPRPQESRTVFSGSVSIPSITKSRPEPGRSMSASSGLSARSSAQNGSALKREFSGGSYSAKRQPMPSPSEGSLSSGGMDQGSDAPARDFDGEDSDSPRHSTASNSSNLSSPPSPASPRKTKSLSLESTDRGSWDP
Conditions: at 1 µM
measurement-kind: inhibition (%)

>>> endpoint_value("Cn1cc(C=C2C(=O)Nc3cccnc32)c2ccccc21")
0.55
>>> endpoint_value("Cc1cc(O)cc(C)c1/C=C/c1cncc(-c2nn[nH]n2)c1")
-0.43
>>> endpoint_value("O=C(Nc1n[nH]c2nc(-c3ccco3)c(Br)cc12)C1CC1")
-0.6
>>> endpoint_value("CCn1c(-c2nonc2N)nc2c(C#CC(C)(C)O)nc(CN3CCCC3)cc21")
0.11
>>> endpoint_value("CCn1c(-c2nonc2N)nc2c(N3CCCC3)nccc21")
5.42
>>> endpoint_value("COc1ccccc1Nc1ncc(-c2ccccc2)o1")
-2.78
>>> endpoint_value("CCn1c(-c2nonc2N)nc2cncc(C(=O)N3CCNCC3)c21")
7.84
>>> endpoint_value("CCn1c(-c2nonc2N)nc2cncc(C(=O)N3CC[C@H](N)C3)c21")
68.7
>>> endpoint_value("COc1cc2ncn(-c3cc(OCc4ccccc4Cl)c(C(N)=O)s3)c2cc1OC")
2.18

###

Molecular target: RAC-alpha serine/threonine-protein kinase (Homo sapiens) (UniProt P31749);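 also: reported values are mean inhibition figures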
Sequence (P31749 whole entry): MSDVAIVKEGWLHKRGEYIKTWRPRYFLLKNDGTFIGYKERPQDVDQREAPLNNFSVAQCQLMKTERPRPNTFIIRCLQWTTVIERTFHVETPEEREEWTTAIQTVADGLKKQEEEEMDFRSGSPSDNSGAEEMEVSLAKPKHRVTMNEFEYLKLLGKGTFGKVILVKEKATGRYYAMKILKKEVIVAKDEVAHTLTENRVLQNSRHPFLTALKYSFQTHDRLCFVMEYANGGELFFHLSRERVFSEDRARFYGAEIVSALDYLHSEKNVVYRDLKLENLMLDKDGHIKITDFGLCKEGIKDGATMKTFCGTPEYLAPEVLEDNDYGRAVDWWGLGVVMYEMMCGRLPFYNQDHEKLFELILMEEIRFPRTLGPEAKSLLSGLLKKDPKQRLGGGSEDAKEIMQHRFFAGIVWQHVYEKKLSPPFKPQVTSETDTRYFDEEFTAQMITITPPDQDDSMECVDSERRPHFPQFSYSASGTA
Conditions: at 0.1 µM
measurement-kind: inhibition (%)

>>> endpoint_value("COc1cccc(-n2ncc3c(N/N=C/c4cccc(F)c4)ncnc32)c1")
-2.98
>>> endpoint_value("COc1ccc(-c2coc3ncnc(N)c23)cc1")
0.76
>>> endpoint_value("COc1cc2ncn(-c3cc(O[C@H](C)c4ccccc4Cl)c(C(N)=O)s3)c2cc1OC")
1.41
>>> endpoint_value("Nc1nc(-c2ccc3c(c2)C(=Cc2cc(Br)c(O)c(Br)c2)C(=O)N3)cs1")
-2.07
>>> endpoint_value("Cc1nnc(-c2ccc(C)c(-c3ccc(C(=O)Nc4cccc(C#N)c4)cc3)c2)o1")
0.44
>>> endpoint_value("COC(=O)Nc1nc2cc(Oc3cccc(NC(=O)Nc4cc(C(F)(F)F)ccc4F)c3)ccc2[nH]1")
0.52

###

Tested on: Tyrosine-protein kinase ABL1 (Homo sapiens), P00519 [Y253F]
Settings: at 0.1 µM
measurement-kind: inhibition (%)

>>> endpoint_value("CN(C)c1cc2c(Nc3ccc4nc(Cc5ccccc5)[nH]c4c3)ncnc2cn1")
4.02
>>> endpoint_value("Fc1cccc(COc2ccc(Nc3ncnc4cc(-c5ccc[nH]5)sc34)cc2Cl)c1")
3.92
>>> endpoint_value("O=C1Nc2ccc(C(=O)c3ccco3)cc2C1=Cc1cc(Cl)c(O)c(Cl)c1")
5.68

###

Target: Mitogen-activated protein kinase kinase kinase kinase 2 (Homo sapiens) (UniProt Q12851);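 also: reported value is a mean of MAP4K2 inhibition at 1 µM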
Sequence (Q12851 whole entry): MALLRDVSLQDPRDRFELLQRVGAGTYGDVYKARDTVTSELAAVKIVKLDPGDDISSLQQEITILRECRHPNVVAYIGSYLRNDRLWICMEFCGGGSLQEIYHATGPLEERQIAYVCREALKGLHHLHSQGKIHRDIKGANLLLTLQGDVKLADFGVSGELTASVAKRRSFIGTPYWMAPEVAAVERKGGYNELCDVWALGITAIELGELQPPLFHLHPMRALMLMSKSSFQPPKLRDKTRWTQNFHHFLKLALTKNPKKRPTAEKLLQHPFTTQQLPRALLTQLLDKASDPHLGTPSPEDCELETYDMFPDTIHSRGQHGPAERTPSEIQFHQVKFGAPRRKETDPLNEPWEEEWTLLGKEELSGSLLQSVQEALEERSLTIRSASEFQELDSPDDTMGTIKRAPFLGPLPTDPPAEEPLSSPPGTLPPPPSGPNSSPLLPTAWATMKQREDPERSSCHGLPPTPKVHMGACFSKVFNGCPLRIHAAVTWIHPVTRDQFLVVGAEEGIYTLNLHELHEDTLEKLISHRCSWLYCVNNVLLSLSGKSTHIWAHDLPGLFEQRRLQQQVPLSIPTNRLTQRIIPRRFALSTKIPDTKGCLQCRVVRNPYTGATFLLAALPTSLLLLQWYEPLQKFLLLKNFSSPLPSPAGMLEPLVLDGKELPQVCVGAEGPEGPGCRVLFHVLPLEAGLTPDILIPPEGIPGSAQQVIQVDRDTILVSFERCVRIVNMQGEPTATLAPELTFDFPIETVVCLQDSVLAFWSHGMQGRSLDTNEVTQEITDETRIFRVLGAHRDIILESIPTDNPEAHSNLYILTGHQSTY
Conditions: at 1 µM
measurement-kind: inhibition (%)

>>> endpoint_value("Nc1nc(-c2ccccn2)c(-c2ccc3ncccc3n2)s1")
2.92
>>> endpoint_value("CS(=O)(=O)CCN(CC#N)Cc1ccc(-c2ccc3ncnc(Nc4ccc(OCc5cccc(F)c5)c(Cl)c4)c3c2)o1")
-0.7
>>> endpoint_value("CN(C)c1cc2c(Nc3ccc4nc(Cc5ccccc5)[nH]c4c3)ncnc2cn1")
2.07
>>> endpoint_value("COc1cc2ncn(-c3cc(O[C@@H](C)c4ccccc4Cl)c(C(N)=O)s3)c2cc1OC")
20.2
>>> endpoint_value("CC1=C(C(=O)Nc2ccc3[nH]ncc3c2)C(c2ccc(F)cc2)NC(=O)N1 (stereo not drawn)")
3.21
>>> endpoint_value("NS(=O)(=O)c1cccc(-c2ccc3c(NC(=O)C4CC4)n[nH]c3c2)c1")
7.37
>>> endpoint_value("CC1=C(C(=O)Nc2ccc3[nH]ncc3c2)C(c2ccc(Cl)c(Cl)c2)CC(=O)N1 (stereo not drawn)")
1.61
>>> endpoint_value("CN1CCC(C(=O)Nc2n[nH]c3nnc(-c4ccccc4)cc23)CC1")
3.35
>>> endpoint_value("CCn1c(-c2nonc2N)nc2c(C#CC(C)(C)O)nc(CN3CCCC3)cc21")
1.87
>>> endpoint_value("CC(C)=Cc1cccc2c1/C(=N/Nc1ccc(S(N)(=O)=O)cc1)C(=O)N2")
6.11
>>> endpoint_value("c1cnn2ncc(-c3ccnc(Nc4ccc5c(c4)OCCO5)n3)c2c1")
56.5
>>> endpoint_value("NC(=O)c1ccc(-c2nc(-c3ccccn3)c(-c3ccc4c(c3)OCO4)[nH]2)cc1")
2.35
>>> endpoint_value("COc1cc2ncn(-c3cc(OCc4ccccc4C(F)(F)F)c(C(N)=O)s3)c2cc1OC")
18.1
>>> endpoint_value("O=C(Nc1n[nH]c2nc(-c3ccco3)c(Br)cc12)C1CC1")
2.51
>>> endpoint_value("CCn1c(-c2nonc2N)nc2c(N3CCCC3)nccc21")
4.2
>>> endpoint_value("Nc1ncnc2occ(-c3ccc(NC(=O)Nc4cccc(C(F)(F)F)c4)cc3)c12")
59.2
>>> endpoint_value("O=C1NC(=O)C(c2ccccc2Cl)=C1Nc1cccc(O)c1")
2.09
>>> endpoint_value("Nc1nc(-c2ccc3c(c2)C(=Cc2cc(Br)c(O)c(Br)c2)C(=O)N3)cs1")
5.61

// data source = ChEMBL document CHEMBL1961873
